measurement.target: thrombin (Bos taurus, UniProt P00735)
Construct: clotting of bovine fibrinogen
run.description: fibrinogen coagulation time (concentration required to prolong the coagulation time by a factor of two)
Type: biochemical
run.conditions: bovine fibrinogen, thrombin 5 units/ml, borate saline buffer pH 7.4, 25° C; control 50-55 seconds prolonged to 100-110 seconds
property: IC (2-fold clotting time)
Give the figure together with its unit, number first.

These solved cases illustrate the format of a correct answer.
                                   compound                     measurement_target  result
0  CCCCN(CC(=O)O)C(=O)[C@H](CCCNC(=N)N)NS(=O)(=O)c1cccc2c(N(C)C)cccc12  thrombin (Bos taurus, UniProt P00735)    4 µM
1  COc1cc2ccc(S(=O)(=O)N[C@@H](CCCNC(=N)N)C(=O)N3CCCC[C@@H]3C(=O)O)cc2cc1OC  thrombin (Bos taurus, UniProt P00735)    2 µM

Any idea what IC (2-fold clotting time) came out for COc1cc2ccc(S(=O)(=O)N[C@@H](CCCNC(=N)N)C(=O)N3Cc4ccccc4C3C(=O)O)cc2cc1OC (some centres unmarked) on thrombin (Bos taurus, UniProt P00735)?
1.5 µM

Provide the documented IC (2-fold clotting time) with thrombin (Bos taurus, UniProt P00735) as the system for "CCOc1cc2ccc(S(=O)(=O)N[C@@H](CCCNC(=N)N)C(=O)N(CCOC)CC(=O)O)cc2cc1OCC"
15 µM

----------
Measured LD50 accompanies every entry in the list below.
run.description: acute toxicity (LD50), intraperitoneal administration in mice
Format: in vivo, mice (male, 20 g)
run.conditions: mouse, in vivo, ip, intraperitoneal, mice (male, 20 g); read-out: LD50
The reply should contain only the number, in mg/kg.

>>> print(df.to_string())
                         structure_notation  measurement_unit  numeric_result
0  COCCN(CC(=O)O)C(=O)[C@H](CCCNC(=N)N)NS(=O)(=O)c1ccc2ccc(OC)cc2c1             mg/kg            2000

We next turn to a different molecule, shown below.
Can you share its LD50? I mean this molecule: "COc1cc2ccc(S(=O)(=O)N[C@@H](CCCNC(=N)N)C(=O)N(CC(=O)O)C3CCCCC3)cc2cc1OC"
1500

----------
measurement.target: thrombin (Bos taurus)
Construct: clotting of bovine fibrinogen
run.description: fibrinogen coagulation time (concentration required to prolong the coagulation time by a factor of two)
Format: biochemical
run.conditions: bovine fibrinogen, thrombin 5 units/ml, borate saline buffer pH 7.4, 25° C; control 50-55 seconds prolonged to 100-110 seconds
property: IC (2-fold clotting time)
Please answer in the form of a number followed by its unit of measurement.

Example compounds with recorded IC (2-fold clotting time):
>>> df
                                   compound  result
0  COCCN(CCCC(=O)O)C(=O)[C@H](CCCNC(=N)N)NS(=O)(=O)c1ccc2cc(OC)c(OC)cc2c1 [compound 17]  2.5 µM
1  CCOC(=O)CN(CCOC)C(=O)[C@H](CCCNC(=N)N)NS(=O)(=O)c1ccc2cc(OC)c(OC)cc2c1 [compound 14]  1.5 µM
2  COCCN(CC(=O)O)C(=O)[C@H](CCCNC(=N)N)NS(=O)(=O)c1cc(OC)c2cc(OC)ccc2c1 [compound 23]    4 µM
3  COc1ccc2ccc(S(=O)(=O)N[C@@H](CCCNC(=N)N)C(=O)N3CCCCCC3C(=O)O)cc2c1 (stereo partly shown) [compound 205]  2.5 µM

Name the reported IC (2-fold clotting time) value associated with the compound CCCCCCCCOC(=O)CN(CCOC)C(=O)[C@H](CCCNC(=N)N)NS(=O)(=O)c1ccc2cc(OC)c(OC)cc2c1 [compound 200]
2 µM

Returns the measured IC (2-fold clotting time) for the input compound. Input: COc1ccc2cc(S(=O)(=O)N[C@@H](CCCNC(=N)N)C(=O)N(CC3CCCCC3)C(C)C(=O)O)cc(OC)c2c1 (stereo partly shown) [compound 126]
4.5 µM

Could you share which IC (2-fold clotting time) value was measured for COCCN(CC(=O)O)C(=O)[C@H](CCCNC(=N)N)NS(=O)(=O)c1cccc2c(OC)cccc12 [compound 43] ?
2.5 µM

Suppose we examine the compound CCCC(C(=O)O)N(CC(=O)O)C(=O)[C@H](CCCNC(=N)N)NS(=O)(=O)c1ccc2cc(OC)c(OC)cc2c1 (stereo partly shown) [compound 207] ; what IC (2-fold clotting time) value has been reported?
55 µM

Name the reported IC (2-fold clotting time) value associated with the compound CCCCCN(CC(=O)O)C(=O)[C@H](CCCNC(=N)N)NS(=O)(=O)c1ccc2cc(OC)c(OC)cc2c1 [compound 7]
5 µM

Fill in: IC (2-fold clotting time) of Cc1ccc2ccc(S(=O)(=O)N[C@@H](CCCNC(=N)N)C(=O)N(CC(=O)O)CC3CCCO3)cc2c1 (stereo partly shown) [compound 160] is ___
0.25 µM

What value of measured IC (2-fold clotting time) is listed for Cc1ccc2ccc(S(=O)(=O)N[C@@H](CCCNC(=N)N)C(=O)N(CC(=O)O)CC3CCCO3)cc2c1 (stereo partly shown) [compound 161] ?
0.2 µM

Name the reported IC (2-fold clotting time) value associated with the compound COc1ccc2ccc(S(=O)(=O)N[C@@H](CCCNC(=N)N)C(=O)N(CCc3ccccc3)CC(=O)O)cc2c1 [compound 64]
20 µM

Given COc1cc2ccc(S(=O)(=O)N[C@@H](CCCNC(=N)N)C(=O)N(CCC(=O)O)CCc3ccccc3)cc2cc1OC [compound 56] , state its recorded IC (2-fold clotting time).
50 µM

Recorded IC (2-fold clotting time) for CCCCN(CC(=O)O)C(=O)[C@H](CCCNC(=N)N)NS(=O)(=O)c1cc(OC)c2cc(OC)ccc2c1 [compound 25] , please?
2 µM

Dear colleague, I am looking for the recorded IC (2-fold clotting time) of the following compound: CC1CCN(C(=O)[C@H](CCCNC(=N)N)NS(=O)(=O)c2cccc3ccccc23)C(C(=O)O)C1 (stereo partly shown) [compound 179]
1 µM

All values here come from patent US4073913A.
